target: adenosine A1 receptor (Homo sapiens (Human)); experiment: Indirect determination of adenosine agonism by gene expression (luciferase reporter), A1 cells; format: cell-based; settings: CHO cells stably transfected with adenosine A1 receptor; 1 μM forskolin; 50% inhibition of luciferase response
Reported EC50 values are given for each entry in this list.

| MOLECULE | UNIT_TAG | EC50 |
| --- | --- | --- |
| CNC(=O)c1cc(C(C)Sc2nc(N)c(C#N)c(-c3ccc(OCC(F)(F)F)cc3)c2C#N)ccn1 (racemic) | nM | 2.8 |
| CCOc1ccc(-c2c(C#N)c(N)nc(SCc3ccnc(C(=O)NC)c3)c2C#N)cc1 | nM | 0.2 |
| CNC(=O)c1cc(COc2nc(N3CC(O)C3)c(C#N)c(-c3ccccc3)c2C#N)ccn1 | nM | 0.9 |
| CNC(=O)c1cc(CSc2ncc(C#N)c(-c3ccc(OCCO)cc3)c2C#N)ccn1 | nM | 0.4 |
| N#Cc1cnc(SCc2cccc(C(=O)O)c2)c(C#N)c1-c1ccccc1 | nM | 0.8 |
| CNC(=O)c1cc(CSc2nc(N)c(C#N)c(-c3ccc(F)c(F)c3)c2C#N)ccn1 | nM | 0.3 |
| N#Cc1c(N)nc(SCc2cccc(C(N)=O)c2)c(C#N)c1-c1ccccc1 | nM | 0.3 |
| CNC(=O)c1cc(CSc2nc(NCCO)c(C#N)c(-c3ccc(OC)cc3)c2C#N)ccn1 | nM | 0.4 |
| CNC(=O)c1cc(CSc2nc(N)c(C#N)c(-c3ccc(OC)cc3)c2C#N)ccn1 | nM | 0.2 |

====

target: adenosine A1 receptor (Homo sapiens (Human), UniProt P30542); experiment: Indirect determination of adenosine agonism by gene expression (luciferase reporter), A1 cells; assay type: cell-based; conditions: CHO cells stably transfected with adenosine A1 receptor; 1 μM forskolin; 50% inhibition of luciferase response
Sequence (P30542 whole entry): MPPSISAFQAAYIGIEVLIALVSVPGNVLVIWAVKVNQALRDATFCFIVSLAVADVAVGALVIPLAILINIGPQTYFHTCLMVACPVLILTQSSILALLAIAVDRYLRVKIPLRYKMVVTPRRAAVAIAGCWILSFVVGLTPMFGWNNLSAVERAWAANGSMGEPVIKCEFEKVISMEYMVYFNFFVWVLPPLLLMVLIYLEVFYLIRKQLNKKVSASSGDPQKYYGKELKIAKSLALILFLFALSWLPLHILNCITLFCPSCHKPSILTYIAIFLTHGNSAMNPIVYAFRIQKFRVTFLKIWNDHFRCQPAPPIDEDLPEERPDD
Structures can show the parent of a compound that is named as a salt.
Reported log10 of EC50 values are given for each entry in this list.
EXPERIMENTAL_ENDPOINT: log10 of EC50 (log10 of the value in nM)

| COMPOUND | log10 of EC50 |
| --- | --- |
| CS(=O)(=O)Nc1cccc(CSc2nc(N)c(C#N)c(-c3ccc(F)c(F)c3)c2C#N)c1 [Example 38] | -0.30 |
| CNC(=O)c1cc(CSc2nc(N)c(C#N)c(-c3ccc(NC)cc3)c2C#N)ccn1 [Example 28] | -0.40 |
| CNC(=O)c1cc(CSc2nc(NCCO)c(C#N)c(-c3ccccn3)c2C#N)ccn1 [Example 88] | -0.15 |
| CNC(=O)c1cccc(CSc2nc(N3CC[C@@H](O)C3)c(C#N)c(-c3ccc(OCCO)cc3)c2C#N)c1 [Example 94] | -0.70 |
| N#Cc1c(N)nc(SCc2cccc(C(=O)NC[C@@H](O)CO)c2)c(C#N)c1-c1ccc(F)cc1 [Example 96] | -0.40 |
| CNC(=O)c1cc(CSc2nc(N3CC(O)C3)c(C#N)c(-c3ccc(F)c(F)c3)c2C#N)ccn1 [Example 74] | 0.38 |
| CNC(=O)c1cc(CSc2nc(NCCO)c(C#N)c(-c3ccc(OCCO)nc3)c2C#N)ccn1 [Example 78] | -1.00 |
| CNC(=O)c1cc(CSc2nc(N)c(C#N)c(-c3cccc(OCCO)c3)c2C#N)ccn1 [Example 29] | -0.30 |
| CNC(=O)c1cc(CSc2ncc(C#N)c(-c3ccccc3)c2C#N)ccn1 [Example 32] | -0.40 |
| CNC(=O)c1cc(CSc2nc(N)c(C#N)c(-c3ccc(F)cc3)c2C#N)ccn1 [Example 2] | -0.52 |
| CNC(=O)c1cccc(C(C)Sc2nc(N)c(C#N)c(-c3ccc(OCCO)cc3)c2C#N)c1 (racemic) [Example 62] | -0.52 |
| N#Cc1cnc(SCc2cccc(C(N)=O)c2)c(C#N)c1-c1ccccc1 [Example 65] | 0.52 |
| CNC(=O)c1cc(COc2nc(N)c(C#N)c(-c3ccc(F)cc3)c2C#N)ccn1 [Example 21] | -0.05 |
| CNC(=O)c1cc(CSc2nc(N)c(C#N)c(-c3ccc(OCCNC(=O)[C@H](C)N)cc3)c2C#N)ccn1 [Example 55, trifluoroacetate] | -0.40 |
| N#Cc1c(SCc2ccnc(C(=O)NC3CC3)c2)nc(N2CCCC2)c(C#N)c1-c1ccccc1 [Example 85] | -0.30 |
| CNC(=O)c1cc(CSc2nc(N)c(C#N)c(-c3ccc(OS(=O)(=O)N(C)C)cc3)c2C#N)ccn1 [Example 46] | -1.40 |
